molecular target: Recombinant human his-tagged IGF 1R extracellular domain protein (human) (UniProt P08069); test: SPR, captured antibody, pH 7.4

{"BINDER": "VRDN-03124 (antibody, V domains shown) VH: EVQLVESGGGVVQPGRSLRLSCAASGFTFDDYTMHWVRQAPGKGLEWVAIIWFDGSSKYYADSVKGRFTISRDNSKNTLYLQMNSLRAEDTAVYYCARELGRRYFDIWGQGTLVTVSS VL: EIVMTQSPATLSVSPGERATLSCRASQGVSSYLAWYQQKPGQAPRLLIYGASTRATGIPARFSGSGSGTEFTLTISSLQSEDFAVYYCQQRSRWPPWTFGQGTKLEIK", "kon (M⁻¹ s⁻¹)": 85200}
{"BINDER": "VRDN-03055 (antibody, V domains shown) VH: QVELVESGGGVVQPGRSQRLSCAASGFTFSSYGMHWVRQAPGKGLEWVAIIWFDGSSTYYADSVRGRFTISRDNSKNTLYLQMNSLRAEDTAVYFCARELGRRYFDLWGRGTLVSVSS VL: EIVLTQSPATLSLSPGERATLSCRASQSVSSYLAWYQQKPGQAPRLLIYDASKRAHGIPARFSGSGSGTDFTLTISSLEPEDFAVYYCQQRSKWPPWTFGQGTKVESK", "kon (M⁻¹ s⁻¹)": 97700}
